Target: Human recombinant MMP-1 (Homo sapiens, UniProt P03956)
Construct: made in house; host or cells: MMP-1-transfected HT-1080 cells (spent media)
Sequence (P03956 100-469): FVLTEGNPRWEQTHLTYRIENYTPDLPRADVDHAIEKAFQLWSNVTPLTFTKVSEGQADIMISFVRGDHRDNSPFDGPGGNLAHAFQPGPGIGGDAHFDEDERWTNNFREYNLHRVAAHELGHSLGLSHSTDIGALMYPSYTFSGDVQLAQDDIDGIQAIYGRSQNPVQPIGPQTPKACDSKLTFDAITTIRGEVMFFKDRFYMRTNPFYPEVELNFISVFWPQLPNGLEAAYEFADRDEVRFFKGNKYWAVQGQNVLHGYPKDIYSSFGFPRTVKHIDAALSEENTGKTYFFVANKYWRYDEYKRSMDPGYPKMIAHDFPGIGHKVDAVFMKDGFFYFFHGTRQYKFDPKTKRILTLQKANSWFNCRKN
Assay: In vitro MMP inhibition analysis (fluorogenic peptide substrate cleavage), Ki
Assay type: biochemical
Details: Table 2
compounds and their reported Ki

{"columns": ["compound", "value.modifier", "Ki / µM"],
 "data": [
  ["COCCOc1ccc(-c2ccc(S(=O)(=O)C3(C(=O)NO)CCN(C4CC4)CC3)cc2)cc1F [Example 112]", "=", 8.58],
  ["COC(C)CCOc1ccc(-c2ccc(S(=O)(=O)C3(C(=O)NO)CCOCC3)cc2)cc1C(F)(F)F (centres unmarked) [Example 100]", ">", 10],
  ["Cc1nc(CCc2ccc(-c3ccc(S(=O)(=O)C4(C(=O)NO)CCOCC4)cc3)cc2)no1 [Example 219]", "=", 1.7],
  ["COc1ccc(-c2ccc(S(=O)(=O)C3(C(=O)NO)CCOCC3)cc2)cc1F [Example 102]", "=", 0.669],
  ["O=C(NO)C1(S(=O)(=O)c2ccc(-c3cnc(OCCC4CCCC4)cn3)cc2)CCOCC1 [Example 180]", ">", 10],
  ["CC[C@@H](C)NC(=O)c1ccc(-c2ccc(S(=O)(=O)C3(C(=O)NO)CCOCC3)cc2)nc1 [Example 207]", "=", 1.38],
  ["O=C(NO)C1(S(=O)(=O)c2ccc(-c3ccc(CCC(F)(F)C(F)(F)F)cn3)cc2)CCOCC1 [Example 201]", "=", 0.98],
  ["O=C(NO)C1(S(=O)(=O)c2ccc(-c3cnc(OCCCC(F)(F)F)cn3)cc2)CCOCC1 [Example 88]", "=", 3.52]
]}
